Origin of measurements: paper PMC5991783

- Protocol summary: in vivo
- Test parameters: CD-1, mouse, iv, 3 mg/kg
Measurement kind: AUC(0-t) at 24 h
Kindly write the number and append the unit.

In plain terms, COc1c(N2C[C@@H]3CCCN[C@@H]3C2)c(F)cc2c(=O)c(C(=O)O)cn(C3CC3)c12 [moxifloxacin, reference compound] has a documented AUC(0-t) at 24 h of 640 ng·h/mL

====

- Protocol summary: Pharmacokinetics in CD-1 mice
- Test parameters: CD-1, mouse, plasma, iv, 10 mg/kg, pH 8
Measurement kind: AUC(0-t) (ng·h/mL)
State just the number; it will be interpreted in ng·h/mL.

In plain terms, CCC(C)NCc1cc2cc3c(cc2n1C)OCCc1c-3[nH]c(=O)c(C(=O)O)c1O.Cl (stereo not shown) [Compound 6o] has a documented AUC(0-t) of 3440

====

- Protocol summary: Pharmacokinetics in CD-1 mice
- Test parameters: CD-1, mouse, plasma, iv, 10 mg/kg, pH 8
Measurement kind: AUC(0-t) at 24 h (ng·h/mL)
State just the number; it will be interpreted in ng·h/mL.

Example molecules with recorded AUC(0-t) at 24 h:
[[record]]
molecule = "Cn1c(CNC2(C)CCC2)cc2cc3c(cc21)OCCc1c-3[nH]c(=O)c(C(=O)O)c1O [Compound 6q]"
unit_of_measure = "ng·h/mL"
obs_value = 4420

[[record]]
molecule = "Cn1c(CN2CCCC2)cc2cc3c(cc21)CCCc1c-3[nH]c(=O)c(C(=O)O)c1O [Compound 6v]"
unit_of_measure = "ng·h/mL"
obs_value = 4050

[[record]]
molecule = "CN(C)Cc1cc2cc3c(cc2n1C)CCCc1c-3[nH]c(=O)c(C(=O)O)c1O [Compound 6r]"
unit_of_measure = "ng·h/mL"
obs_value = 3520


# evaluate next
In plain terms, CC(C)NCc1cc2cc3c(cc2n1C)CCCc1c-3[nH]c(=O)c(C(=O)O)c1O [Compound 6i] has a documented AUC(0-t) at 24 h of 1810

====

- Tested on: E. coli^WT (ATCC 25922)
- Protocol summary: Mouse septicemia model
- Assay type: in vivo, CD-1 mice
- Test parameters: Mus musculus, iv, 96 h, read-out: survival
Measurement kind: responders at 20 mg/kg (%)
State just the number; it will be interpreted in %.

[[record]]
molecule = "CN(C)Cc1cc2cc3c(cc2n1C)CCCc1c-3[nH]c(=O)c(C(=O)O)c1O [Compound 6r]"
obs_value = 100

[[record]]
molecule = "CN(C)Cc1cc2cc3c(cc2n1C)OCCc1c-3[nH]c(=O)c(C(=O)O)c1O [Compound 6s]"
obs_value = 100

[[record]]
molecule = "Cn1c(CNC2(C)CCC2)cc2cc3c(cc21)CCCc1c-3[nH]c(=O)c(C(=O)O)c1O [Compound 6p]"
obs_value = 0


# evaluate next
In plain terms, Cn1c(CN2CCCC2)cc2cc3c(cc21)CCCc1c-3[nH]c(=O)c(C(=O)O)c1O [Compound 6v] has a documented responders at 20 mg/kg of 100

====

- Target system: E. coli DNA gyrase (Escherichia coli, UniProt P0AES4+P0AES6)
- Protocol summary: biochemical
- Test parameters: E. coli DNA gyrase IC50
Measurement kind: pIC50
When answering, recall that pIC50 equals minus log10 of the concentration in mol/L, and write that number alone.

Example compounds with recorded pIC50:
[[record]]
compound = "CC(C)NCc1cc2cc3c(cc2n1C)CCCc1c-3[nH]c(=O)c(C(=O)O)c1O [Compound 6i]"
obs_value = 5.57

[[record]]
compound = "Cn1c(CNC2(C)CCC2)cc2cc3c(cc21)OCCc1c-3[nH]c(=O)c(C(=O)O)c1O [Compound 6q]"
obs_value = 6.14

[[record]]
compound = "Cn1c(CN2CCCC2)cc2cc3c(cc21)CCCc1c-3[nH]c(=O)c(C(=O)O)c1O [Compound 6v]"
obs_value = 6.68


The compound CN(C)Cc1cc2cc3c(cc2n1C)CCCc1c-3[nH]c(=O)c(C(=O)O)c1O [Compound 6r] , when measured on E. coli DNA gyrase (Escherichia coli, UniProt P0AES4+P0AES6), yielded pIC50 of 6.39

The compound CCC(C)NCc1cc2cc3c(cc2n1C)OCCc1c-3[nH]c(=O)c(C(=O)O)c1O.Cl (stereo not shown) [Compound 6o] , when measured on E. coli DNA gyrase (Escherichia coli, UniProt P0AES4+P0AES6), yielded pIC50 of 6.96

The compound Cn1c(CN2CCCC2)cc2cc3c(cc21)OCCc1c-3[nH]c(=O)c(C(=O)O)c1O [Compound 6w] , when measured on E. coli DNA gyrase (Escherichia coli, UniProt P0AES4+P0AES6), yielded pIC50 of 6.55

The compound CN(C)Cc1cc2cc3c(cc2n1C)OCCc1c-3[nH]c(=O)c(C(=O)O)c1O [Compound 6s] , when measured on E. coli DNA gyrase (Escherichia coli, UniProt P0AES4+P0AES6), yielded pIC50 of 6.31
